Values compiled from ChEMBL document CHEMBL3046260.

# Tested on: Aspergillus flavus
# test.details: Antimicrobial activity against Aspergillus flavus ATCC 10124 after 48 hr by two-foldserial dilution method
# Type: functional
# condition.details: ATCC 10124, 48 h
Recorded MIC for the following compounds
assay.readout: MIC (µg/mL)

O=C1COc2ccc(Cl)cc2N1C1CCCCC1 :: 32
Clc1ccccc1C(c1ccccc1)(c1ccccc1)n1ccnc1 :: 2
O=C1COc2cc(Cl)ccc2N1C1CCCCC1 :: 128
O=C1COc2c(Cl)cccc2N1C1CCCCC1 :: 256
O=C1COc2cc(Cl)ccc2N1CC1CCCO1 (stereo unspecified) :: 256
O=C1COc2cc(F)ccc2N1Cc1ccccc1 :: 128
O=C1COc2cc(F)ccc2N1C1CCCCC1 :: 64
O=C1COc2ccc(Cl)cc2N1Cc1ccccc1 :: 32
O=C1COc2cc(Br)ccc2N1Cc1ccccc1 :: 128
O=C1COc2cc(Cl)ccc2N1Cc1ccccc1 :: 128
CCCCCCN1C(=O)COc2cc(F)ccc21 :: 128
